Origin of values: patent US12281225B2

Experiment: Analysis of active substance: preservative concentration before and after storage in VI-containing polymer solution
Assay type: physicochemical
Settings: in Polymer P1; storage 14 d at 40° C.
Method: Stability of Preservatives in VI-Containing Polymers: The following stabilizers for VI-containing polymers (here: aqueous solution of a copolymer of vinylpyrrolidone and vinylimidazole) were tested. MIT, BIT, CMIT, OIT, DCOIT and iodopropynyl butyl carbamate were determined by RP chromatography with UV detection after dilution of the sample to be tested. An RP18 column was used for this purpose, with an eluent composed of an acid-methanol mixture under isocratic conditions.
// reported active-substance concentration, 14 d, 40° C. per item
# output: bare number, implied unit ppm

1) CCCCCCCCn1sc(Cl)c(Cl)c1=O = 244
2) O=c1[nH]sc2ccccc12 = 101
3) CCCCNC(=O)OCC#CI [Iodopropynyl butyl carbamate, iodopropynyl butyl carbamate] = 206
4) CCCCCCCCCCCCCCCC[N+](C)(C)Cc1ccccc1.[Cl-] [Polymer 16-BAC, cetylalkonium chloride] = 960
5) CCCCCCCCCC[N+](C)(C)CCCCCCCCCC.[Cl-] [DDAC, didecyldimethylammonium chloride] = 950
6) Cn1sccc1=O = 217

Q: active-substance concentration, 14 d, 40° C. for `CCCCCCCCn1sccc1=O` ?
Result: 142

Q: Record request: active-substance concentration, 14 d, 40° C. value, item `Cn1sc(Cl)cc1=O`
Result: 94

---

Assay: Iodine color number according to DIN 6162:2014-09
Assay type: physicochemical
Conditions: Polymer P1 with stabilizer; start
Property: Iodine color number, start
Reply with the value as a number alone.

Solved entries:
1) Cn1sccc1=O = 2.5
2) CCCCCCCCn1sc(Cl)c(Cl)c1=O = 3.0
3) O=c1[nH]sc2ccccc12 = 2.6

Now for a further compound.
Q: What measured Iodine color number, start goes with CCCCCCCCCC[N+](C)(C)CCCCCCCCCC.[Cl-] [DDAC, didecyldimethylammonium chloride] ?
Result: 2.9

---

Reported Iodine color number, start values follow for various compounds
Assay: Iodine color number according to DIN 6162:2014-09
Type: physicochemical
Settings: Polymer P5 (HP56) with stabilizer; start
Output spec: single numeric token, no unit.

1) O=c1[nH]sc2ccccc12 = 3.6
2) Cn1sccc1=O = 3.6
3) Cn1sc(Cl)cc1=O = 3.5

Q: Using the record for CCCCNC(=O)OCC#CI [Iodopropynyl butyl carbamate, iodopropynyl butyl carbamate] , report its Iodine color number, start.
Result: 3.4

Q: What value of Iodine color number, start has been reported for the following compound? `CCCCCCCCn1sc(Cl)c(Cl)c1=O`
Result: 3.6

Q: Which Iodine color number, start value belongs to CCCCCCCCCC[N+](C)(C)CCCCCCCCCC.[Cl-] [DDAC, didecyldimethylammonium chloride] ?
Result: 3.3

Q: Quick one: Iodine color number, start for CCCCCCCCCCCCCCCC[N+](C)(C)Cc1ccccc1.[Cl-] [Polymer 16-BAC, cetylalkonium chloride] ?
Result: 3.4

Q: Consider the compound `CCCCCCCCn1sccc1=O` and give its measured Iodine color number, start.
Result: 3.4

---

Test: Analysis of active substance: preservative concentration before and after storage in VI-containing polymer solution
Format: physicochemical
Conditions: in Polymer P4; before storage
Property: active-substance concentration, 0 d, RT (ppm)
All answers are understood in ppm, so give the number only.

Sample answers from the record:
1. CCCCCCCCn1sc(Cl)c(Cl)c1=O [DCOIT, dichloroctylisothiazolinone] = 300
2. CCCCNC(=O)OCC#CI [Iodopropynyl butyl carbamate, iodopropynyl butyl carbamate] = 250
3. CCCCCCCCn1sccc1=O [OIT, octylisothiazolinone] = 250

We next turn to a different compound, shown below.
Q: Which active-substance concentration, 0 d, RT is reported for this compound? Cn1sccc1=O [MIT, methyl-4-isothiazolin-3-one]
Result: 250
